# Test system: HCC 2998
# test: NCI tumour cell line growth inhibition, 48 h
Activity calls are given as the source filed them. Cut-off read from the data, not from the text of the source: active = GI50 up to about 1.1 µM and inactive = higher.

{"molecule": "N/N=C(/Cc1nc2ccc(C(=O)c3ccccc3)cc2nc1O)C(=O)Nc1ccc([N+](=O)[O-])cc1[N+](=O)[O-]", "GI50": "> 10 µM (inactive)"}
{"molecule": "O=C1COc2cc3c(cc2N1)SCC(=O)N3", "GI50": "> 100 µM (inactive)"}
{"molecule": "CCN1C(=O)c2cc(OC)c(OC)cc2C(=O)C12OC(=O)c1cc3c(cc12)OCO3 (stereo not given)", "GI50": "54.7 µM (inactive)"}
{"molecule": "C=C1C(=O)O[C@@H]2[C@H]3O[C@]3(C)CCC=C(C)CC[C@@H]12", "GI50": "24.2 µM (inactive)"}
{"molecule": "C/C(=C\\c1ccc2c(c1)OCO2)[N+](=O)[O-]", "GI50": "3.54 µM (inactive)"}

* * *

Listed here are compounds together with their documented GI50.
# Test system: UO-31
# test: NCI tumour cell line growth inhibition, 48 h
Calls of active or inactive are those of the source. Rule as the data show it: active = GI50 up to about 1.1 µM and inactive = higher.
measureName: GI50

{"compound": "CC(C)(C)C(=O)OCOP(=O)(OCOC(=O)C(C)(C)C)OCC1OC(n2ccc(=O)[nH]c2=O)C(N=[N+]=[N-])C1O (centres undefined)", "measureName": "GI50", "measuredResult": "1.62 µM (inactive)"}
{"compound": "O=C1COc2cc3c(cc2N1)SCC(=O)N3", "measureName": "GI50", "measuredResult": "> 100 µM (inactive)"}
{"compound": "C=C[C@]1(C)C[C@@H](OC(=O)CO)[C@@]2(C)[C@H](C)CC[C@]3(CCC(=O)[C@H]32)[C@@H](C)[C@@H]1O", "measureName": "GI50", "measuredResult": "> 63.5 µM (inactive)"}
{"compound": "CCOC(=O)c1nc2c(nc1C(=O)OCC)C(=O)c1ccccc1C2=O", "measureName": "GI50", "measuredResult": "0.333 µM (active)"}
{"compound": "Nc1nc(Cl)c(/N=N/c2ccc(Cl)cc2)c(NCC2(CO)CCC(CCc3ccccc3)C2)n1 (centres undefined)", "measureName": "GI50", "measuredResult": "2.1 µM (inactive)"}
{"compound": "O=C1C(=O)N(C2C3CC4CC(C3)CC2C4)C(=O)C(=O)C1c1nc2ccccc2o1 (centres undefined)", "measureName": "GI50", "measuredResult": "> 100 µM (inactive)"}
{"compound": "CCCCC1=CC1(C#N)[N+](=O)[O-] (centres undefined)", "measureName": "GI50", "measuredResult": "> 100 µM (inactive)"}
{"compound": "COc1cc(C(C)(C)C)c(OC(=O)/C=C/C(=O)O/C=C/[N+](=O)[O-])c(C(C)(C)C)c1", "measureName": "GI50", "measuredResult": "28.1 µM (inactive)"}
{"compound": "COP(=O)(C(/C=C/c1ccccc1)OC(C)=O)[C@@H]1CCCC[C@H]1N(CC(C)(C)C)C(C)=O (some centres undefined)", "measureName": "GI50", "measuredResult": "13.9 µM (inactive)"}

* * *

# System: NCI-H460
# test: NCI tumour cell line growth inhibition, 48 h
Activity calls are given as the source filed them. Rule as the data show it: active = GI50 up to about 1.1 µM and inactive = higher.
Each entry below lists one item and its recorded GI50 value.
measureName: GI50

{"molecule": "CCCCCCOC(=O)C(N)Cc1ccc(OC)cc1 (stereo not given)", "measuredResult": "> 100 µM (inactive)"}
{"molecule": "C=C(c1ccccc1)C1(O)CCCCC1N (stereo not given)", "measuredResult": "> 100 µM (inactive)"}
{"molecule": "O=C1NC(=S)N(c2cccc3ccccc23)C(=O)/C1=C/c1c[nH]c2ccccc12", "measuredResult": "2.36 µM (inactive)"}
{"molecule": "Cc1c(N(Cc2ccccc2)Cc2ccccc2)nc(S(C)(=O)=O)nc1S(C)(=O)=O", "measuredResult": "5.14 µM (inactive)"}
{"molecule": "Brc1cccc(Nc2ncnc3sc4c(c23)CCC(Nc2cccc(Br)c2)C4)c1 (stereo not given)", "measuredResult": "> 100 µM (inactive)"}
{"molecule": "Cc1ccc(/C=N/C23CC4CC(CC(C4)C2)C3)cc1", "measuredResult": "> 100 µM (inactive)"}
{"molecule": "O=[N+]([O-])/C=C/c1cc(Cl)c(/C=C/[N+](=O)[O-])cc1Cl", "measuredResult": "19.4 µM (inactive)"}
{"molecule": "NC1=Nc2ccccc2Sc2nc3ccccc3n21", "measuredResult": "17.2 µM (inactive)"}
{"molecule": "O=C(/N=N/c1ccccc1Br)NNc1ccccc1Br", "measuredResult": "70.3 µM (inactive)"}
{"molecule": "CCN1C[C@]2(COC)[C@H](O)C[C@H](OC)[C@]34C1[C@H]([C@H](OC)[C@H]23)[C@]1(OC(C)=O)[C@H]2[C@@H](OC(=O)c3ccccc3)[C@](O)(C[C@H]24)[C@@H](OC)[C@@H]1O", "measuredResult": "> 100 µM (inactive)"}

* * *

Measured GI50 accompanies every entry in the list below.
# Tested on: UACC-62
# test: NCI tumour cell line growth inhibition, 48 h
Activity calls are given as the source filed them. Cut-off read from the data, not from the text of the source: active = GI50 up to about 1.1 µM and inactive = higher.

{"compound": "CCOP(=O)(OCC)C1=C(c2ccccc2)OC(N)=C(C#N)C1c1ccc(Cl)cc1 (stereo not given)", "GI50": "> 100 µM (inactive)"}
{"compound": "O=c1c2ccccc2nc(N/N=C/c2ccc(Cl)cc2)n1-c1ccccc1", "GI50": "> 100 µM (inactive)"}
{"compound": "O=C1N[C@@H]2CCC[C@@H]2[C@@H]1c1ccc(Cl)cc1", "GI50": "> 100 µM (inactive)"}
{"compound": "COC(CC1(/C=C/O[Si](C(C)C)(C(C)C)C(C)C)C(=O)N(C)c2ccccc21)OC (stereo not given)", "GI50": "> 100 µM (inactive)"}
{"compound": "C=C1C(=O)O[C@@H]2[C@H]3O[C@]3(C)CCC=C(C)CC[C@@H]12", "GI50": "16.8 µM (inactive)"}

* * *

# System: SW-620
# test: NCI tumour cell line growth inhibition, 48 h
Activity calls are given as the source filed them. Rule as the data show it: active = GI50 up to about 1.1 µM and inactive = higher.
A collection of compounds and their measured GI50

{"compound": "NC(=S)N/N=C1/CCCC2CCCC[C@@H]12 (stereo partly specified)", "GI50": "> 100 µM (inactive)"}
{"compound": "Cc1cc2ncn(C3CCCCO3)c2cc1C (stereo unspecified)", "GI50": "> 100 µM (inactive)"}
{"compound": "Cc1cc2cc3c(Cl)c(CCCl)c(C)nc3cc2c(Cl)c1CCCl", "GI50": "24.8 µM (inactive)"}
{"compound": "c1nc2cscc2c2cscc12", "GI50": "> 100 µM (inactive)"}
{"compound": "COC(=O)C(C(=O)C(=O)Nc1ccc(C)cc1C)c1csc(-n2nc(-c3ccccc3)cc2-c2ccccc2)n1 (stereo unspecified)", "GI50": "> 100 µM (inactive)"}
{"compound": "OCC(O)COCn1cc(Cn2ncc3c(SCc4ccccc4)ncnc32)nn1 (stereo unspecified)", "GI50": "> 100 µM (inactive)"}
{"compound": "Cc1nc2c(n1-c1ccc(Br)cc1)C(=O)c1ccccc1C2=O", "GI50": "7.74 µM (inactive)"}
{"compound": "NNC(=O)c1nn[nH]c1SSc1[nH]nnc1C(=O)NN", "GI50": "> 100 µM (inactive)"}
{"compound": "COc1cc(/C=C2\\CCC/C(=C\\c3ccc(O)c(OC)c3)C2=O)ccc1O", "GI50": "2.7 µM (inactive)"}
{"compound": "Clc1cc(C(c2cc(Cl)sc2Cl)c2cc(Cl)sc2Cl)c(Cl)s1", "GI50": "> 100 µM (inactive)"}
{"compound": "O=C(O)c1cc2ccccc2c(/N=N\\c2cc(C(F)(F)F)ccc2Cl)c1O", "GI50": "> 100 µM (inactive)"}

* * *

Parameter GI50: see the listing below.
# Test system: NCI-H226
# test: NCI tumour cell line growth inhibition, 48 h
Active and inactive are the calls of the source. No stated cut-off is given here; in the data, active = GI50 up to about 1.1 µM and inactive = higher.
measureName: GI50

{"compound": "C=CCON(C(=O)OC(C)(C)C)C(C)(C)C", "measuredResult": "> 100 µM (inactive)"}
{"compound": "C/C(=C\\c1ccc2c(c1)OCO2)[N+](=O)[O-]", "measuredResult": "3.84 µM (inactive)"}
{"compound": "CC1(C)OCC(C2CCC3(C)C4=CCC5C(C)(C)C(O)CCC5(C)C4CCC23C)CC(O)C1O (configuration not stated)", "measuredResult": "17.3 µM (inactive)"}
{"compound": "COc1cc(S(=O)(=O)Nc2nc(-c3ccc(N4C(=O)CSC4c4cccs4)cc3)cs2)ccc1Cl (configuration not stated)", "measuredResult": "> 100 µM (inactive)"}
{"compound": "COC1(C)CP(=O)(OC(C)C)CC(C)=C1Cl (configuration not stated)", "measuredResult": "12.5 µM (inactive)"}
{"compound": "COc1cc2c(c3oc4c(O)cccc4c(=O)c13)CC(C(C)(O)CO)O2 (configuration not stated)", "measuredResult": "> 100 µM (inactive)"}
{"compound": "CC/C=C/c1cc2c(cc1O)CCC1C2CC[C@@]2(C)C1CC[C@@H]2O (some centres not stated)", "measuredResult": "1.47 µM (inactive)"}
{"compound": "Nc1nc(Nc2ccc(Cl)cc2)sc1C(=O)c1cc2ccccc2oc1=O", "measuredResult": "> 100 µM (inactive)"}
{"compound": "c1ccc(N2N=NC3C4CC(C5c6ccccc6C45)C32)cc1 (configuration not stated)", "measuredResult": "37.8 µM (inactive)"}
{"compound": "c1ccc(NC2(c3nnnn3C3CCCCC3)CCNCC2)cc1", "measuredResult": "17.9 µM (inactive)"}
{"compound": "CCCCN1CSC(=S)N(Cc2ccccc2)C1", "measuredResult": "> 68.5 µM (inactive)"}
{"compound": "CC1(C)N=c2[nH]cnc2=C(C(N)=O)N1", "measuredResult": "> 100 µM (inactive)"}
{"compound": "NCCCCNc1ccc2c(=O)[nH][nH]c(=O)c2c1", "measuredResult": "> 100 µM (inactive)"}
{"compound": "CO/C(=N\\N=C\\c1ccc(OC)c(OC)c1)c1ccncc1", "measuredResult": "> 10 µM (inactive)"}
{"compound": "CCCCC1(N=[N+]=[N-])C(=O)C2C=CC=C3c4ccccc4N(C1=O)C32 (configuration not stated)", "measuredResult": "21.3 µM (inactive)"}
{"compound": "C[N+]1(CCC(=O)c2ccccc2)CCC2CCC(C2)C1 (configuration not stated)", "measuredResult": "> 100 µM (inactive)"}
{"compound": "Oc1ccc(Cl)cc1C1=NC(NCNC2=NC(c3ccccc3)CC(c3cc(Cl)ccc3O)=N2)=NC(c2ccccc2)C1 (configuration not stated)", "measuredResult": "> 100 µM (inactive)"}
{"compound": "O=S(=O)(c1ccccc1)n1cc(C[P+](c2ccccc2)(c2ccccc2)c2ccccc2)c2ccccc21", "measuredResult": "4.81 µM (inactive)"}
{"compound": "CNC(=O)N(C)C(=O)c1ccccc1C(=O)N(C)C(=O)NC", "measuredResult": "> 10 µM (inactive)"}
{"compound": "CN(C)c1ccc(/C=C/C(=O)N[C@@H]2C(=O)N3[C@@H]2SC(C)(C)[C@@H]3C(=O)O)cc1", "measuredResult": "> 100 µM (inactive)"}
{"compound": "CC(=O)OC(CN1CCN(c2ccccn2)CC1)Cn1sc2nc(C)cc(C)c2c1=O (configuration not stated)", "measuredResult": "> 100 µM (inactive)"}
{"compound": "O=C(O)COc1cc(-c2ccccc2)nc2ccccc12", "measuredResult": "> 100 µM (inactive)"}
